assay.system: HEK293 cells with stable expression of the GRIN1 gene and tetracycline-inducible expression of the GRIN2B gene (NMDA receptor, NR2B) (Homo sapiens, UniProt Q13224)
Sequence (Q13224 27-1484, other chains not shown): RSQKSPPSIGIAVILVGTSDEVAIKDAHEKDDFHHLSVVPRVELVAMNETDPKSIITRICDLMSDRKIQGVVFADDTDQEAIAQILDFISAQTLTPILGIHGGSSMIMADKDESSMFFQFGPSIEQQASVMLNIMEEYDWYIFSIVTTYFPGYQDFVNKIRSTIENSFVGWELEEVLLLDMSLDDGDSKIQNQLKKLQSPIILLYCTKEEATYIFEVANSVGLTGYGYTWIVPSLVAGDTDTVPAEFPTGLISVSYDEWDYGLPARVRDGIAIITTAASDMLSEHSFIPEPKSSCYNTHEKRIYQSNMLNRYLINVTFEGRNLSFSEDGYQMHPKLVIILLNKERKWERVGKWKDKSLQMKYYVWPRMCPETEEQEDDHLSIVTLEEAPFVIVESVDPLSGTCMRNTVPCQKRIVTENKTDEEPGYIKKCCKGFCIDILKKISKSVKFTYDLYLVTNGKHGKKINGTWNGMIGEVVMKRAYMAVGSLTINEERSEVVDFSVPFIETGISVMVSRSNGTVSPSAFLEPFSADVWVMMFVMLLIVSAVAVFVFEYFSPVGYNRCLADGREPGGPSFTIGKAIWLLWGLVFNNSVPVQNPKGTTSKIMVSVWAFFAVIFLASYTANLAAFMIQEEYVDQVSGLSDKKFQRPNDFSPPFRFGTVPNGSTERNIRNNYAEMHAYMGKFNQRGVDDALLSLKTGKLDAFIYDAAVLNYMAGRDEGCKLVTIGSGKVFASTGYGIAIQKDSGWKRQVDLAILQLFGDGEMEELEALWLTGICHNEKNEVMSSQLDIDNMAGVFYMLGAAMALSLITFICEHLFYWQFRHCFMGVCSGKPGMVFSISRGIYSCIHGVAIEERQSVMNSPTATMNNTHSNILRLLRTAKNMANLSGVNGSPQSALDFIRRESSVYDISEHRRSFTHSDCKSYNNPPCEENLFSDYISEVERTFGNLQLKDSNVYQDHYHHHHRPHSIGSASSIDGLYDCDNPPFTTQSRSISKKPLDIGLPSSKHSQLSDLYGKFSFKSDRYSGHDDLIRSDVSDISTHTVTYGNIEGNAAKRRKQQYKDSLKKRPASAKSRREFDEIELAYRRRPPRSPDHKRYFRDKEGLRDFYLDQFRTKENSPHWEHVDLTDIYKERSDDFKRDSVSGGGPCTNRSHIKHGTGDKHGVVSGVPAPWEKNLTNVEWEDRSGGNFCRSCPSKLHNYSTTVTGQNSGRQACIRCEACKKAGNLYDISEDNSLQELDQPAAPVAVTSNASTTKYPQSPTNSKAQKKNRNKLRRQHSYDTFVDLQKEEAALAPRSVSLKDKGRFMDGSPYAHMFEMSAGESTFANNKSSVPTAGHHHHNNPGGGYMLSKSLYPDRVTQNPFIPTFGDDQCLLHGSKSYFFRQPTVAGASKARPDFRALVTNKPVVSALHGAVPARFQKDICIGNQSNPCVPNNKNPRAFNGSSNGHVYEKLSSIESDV
method.notes: Fluo-8 Ca2+ flux assay: reversal of Ro 25-6981-mediated suppression of the Ca2+ response to co-agonist (glutamate/glycine)
Assay type: cell-based
run.parameters: reversal of the Ro 25-6981 suppression of the Ca2+ response to co-agonist (glutamate/glycine)
property.name: Response Recovered (%)

| compound | property.name | recorded.number |
| --- | --- | --- |
| O=C(Cn1ccc2scc(-c3cncc(Cl)n3)c2c1=O)N1CC(F)(CF)C1 [Example 146] | Response Recovered (%) | −3.8 |
| O=C(Cn1ccn2ccc(-c3ccc(F)c(Cl)c3)c2c1=O)N1CCC(F)C1 (stereo not shown) [Example 393] | Response Recovered (%) | 49 |
| C[Si](C)(C)CCOCn1cc(-c2ccc(Cl)c(C(F)(F)F)c2)c2c(=O)n(CC(=O)N3CCC(F)C3)ccc21 (stereo not shown) [Example 199] | Response Recovered (%) | 47 |
| O=C(Cn1ccc2[nH]cc(-c3ccc(Cl)c(F)c3)c2c1=O)N1CC(F)(F)C1 [Example 213] | Response Recovered (%) | 109 |
| O=C(Cn1cnc2onc(-c3ccc(Cl)cc3)c2c1=O)N1CC(F)(F)C1 [Example 385] | Response Recovered (%) | 4 |
| CCC1(F)CN(C(=O)Cn2cc(C)n3ccc(-c4ccc(F)c(Cl)c4)c3c2=O)C1 [Example 418] | Response Recovered (%) | 74 |
| O=C(Cn1cnc2[nH]cc(-c3ccc(Cl)c(C(F)(F)F)c3)c2c1=O)N1CC(F)(F)C1 [Example 166] | Response Recovered (%) | 65 |
| Cn1cc(-n2cc(-c3ccc(Cl)c(Cl)c3)c3c(=O)n(CC(=O)N4CCC(F)C4)ccc32)cn1 (stereo not shown) [Example 283] | Response Recovered (%) | 82 |
| O=C(Cn1cnc2c(c(-c3ccc(Cl)c(F)c3)cn2CCF)c1=O)N1CCCC1 [Example 173] | Response Recovered (%) | 32 |
| Cc1cn(CC(=O)N2CC(C)(F)C2)c(=O)c2c(-c3cnc(Cl)c(Cl)c3)ccn12 [Example 420] | Response Recovered (%) | 69 |
| Cc1cc(-c2csc3ccn(CC(=O)N4CC(F)(CF)C4)c(=O)c23)cnc1Cl [Example 86] | Response Recovered (%) | 17 |
| O=C(Cn1ccc2ncc(-c3cnc(Cl)c(C(F)(F)F)c3)n2c1=O)N1CCC(F)C1 (stereo not shown) [Example 449] | Response Recovered (%) | 5.2 |
| CC1(F)CN(C(=O)Cn2ccc3scc(-c4cnc(Cl)nc4)c3c2=O)C1 [Example 140] | Response Recovered (%) | 3.1 |
| Cn1cc(-n2cc(-c3ccc(F)c(Cl)c3)c3c(=O)n(CC(=O)N4CC(C)(F)C4)ccc32)nn1 [Example 271] | Response Recovered (%) | 140 |
| O=C(Cn1ccc2[nH]cc(-c3ccc(F)c(C(F)(F)F)c3)c2c1=O)N1CC(F)(F)C1 [Example 216] | Response Recovered (%) | 101 |
| Cc1cc(-c2ccn3ccn(CC(=O)N4CC(C)(F)C4)c(=O)c23)cnc1Cl [Example 408] | Response Recovered (%) | 51 |

----------
assay.system: HEK293 cells with stable expression of the GRIN1 gene and tetracycline-inducible expression of the GRIN2B gene (NMDA receptor, NR2B) (Homo sapiens, UniProt Q13224)
method.notes: Fluo-8 Ca2+ flux assay: reversal of Ro 25-6981-mediated suppression of the Ca2+ response to co-agonist (glutamate/glycine)
Assay type: cell-based
run.parameters: reversal of the Ro 25-6981 suppression of the Ca2+ response to co-agonist (glutamate/glycine)

| molecule | display.unit | Response Recovered (%) |
| --- | --- | --- |
| O=C(Cn1ccc2scc(-c3ccc(F)c(C(F)(F)F)c3)c2c1=O)N1CC(F)(c2ccccc2)C1 [Example 54] | % | 17 |
| CC1(F)CN(C(=O)Cn2ccc3scc(-c4ccc(Cl)c(C(F)(F)F)c4)c3c2=O)C1 [Example 21] | % | 120 |
| Cc1nc(-c2ccc(F)c(Cl)c2)c2c(=O)n(CC(=O)N3CCC(F)C3)ccn12 (centres unmarked) [Example 428] | % | 18 |
| O=C(Cn1ncc2scc(-c3ccc(F)c(Cl)c3)c2c1=O)N1CC(F)(F)C1 [Example 341] | % | 8 |
| O=C(Cn1ccc2[nH]cc(-c3ccc(Cl)c(C(F)(F)F)c3)c2c1=O)N1CCCC1 [Example 198] | % | 104 |
| O=C(Cn1cc(CN2CCC2)c2scc(-c3ccc(Cl)c(Cl)c3)c2c1=O)N1CCC(F)C1 (centres unmarked) [Example 122] | % | 27 |
| O=C(Cn1cnc2occ(-c3ccc(Cl)cc3)c2c1=O)N1CCCC1 [Example 388] | % | 8 |
| O=C(Cn1ccc2[nH]cc(-c3ccc(F)c(C(F)(F)F)c3)c2c1=O)N1CCC(F)C1 (centres unmarked) [Example 215] | % | 89 |

----------
assay.system: HEK293 cells with stable expression of the GRIN1 gene and tetracycline-inducible expression of the GRIN2B gene (NMDA receptor, NR2B) (Homo sapiens)
method.notes: Fluo-8 Ca2+ flux assay: reversal of Ro 25-6981-mediated suppression of the Ca2+ response to co-agonist (glutamate/glycine)
Assay type: cell-based
run.parameters: reversal of the Ro 25-6981 suppression of the Ca2+ response to co-agonist (glutamate/glycine)
// reported Response Recovered (%) for each item listed
property.name: Response Recovered (%)

| compound | result |
| --- | --- |
| O=C(Cn1ccc2c(c(-c3ccc(Cl)c(Cl)c3)cn2C2CC2)c1=O)N1CCC(F)C1 (centres unmarked) | 85% |
| CCOCn1cc(-c2ccc(F)c(C(F)(F)F)c2)c2c(=O)n(CC(=O)N3CCC(F)C3)ccc21 (centres unmarked) | 61% |
| COCn1cc(-c2ccc(F)c(C(F)(F)F)c2)c2c(=O)n(CC(=O)N3CCC(F)C3)ccc21 (centres unmarked) | 65% |
| Cc1cn(CC(=O)N2CCC(F)C2)c(=O)c2c(-c3ccc(F)c(C(F)(F)F)c3)ccn12 (centres unmarked) | 59% |
| CC1(F)CN(C(=O)Cn2ccc3scc(-c4cnc(Cl)c(Cl)c4)c3c2=O)C1 | 77% |
| COCCn1cc(-c2ccc(F)c(Cl)c2)c2c(=O)n(CC(=O)N3CCCC3)cnc21 | 18% |
| CC1(F)CN(C(=O)Cn2ccn3c(C4CC4)nc(-c4cnc(F)c(Cl)c4)c3c2=O)C1 | 46% |
| O=C(Cn1ccc2scc(-c3ccc(Cl)c(Cl)c3)c2c1=O)N1CC2(CC2)C1 | 53% |

----------
assay.system: HEK293 cells with stable expression of the GRIN1 gene and tetracycline-inducible expression of the GRIN2B gene (NMDA receptor, NR2B) (Homo sapiens)
method.notes: Fluo-8 Ca2+ flux assay: reversal of Ro 25-6981-mediated suppression of the Ca2+ response to co-agonist (glutamate/glycine)
Type: cell-based
run.parameters: reversal of the Ro 25-6981 suppression of the Ca2+ response to co-agonist (glutamate/glycine)
1 (yes) means recorded Response Recovered (%) is 50% or above; 0 (no) means it is below 50%.

| molecule | label.value |
| --- | --- |
| O=C(Cn1ccc2c(c(-c3ccc(F)c(Cl)c3)cn2C2COC2)c1=O)N1CCC(F)C1 (centres unmarked) | 0 (no) |
| O=C(Cn1ccc2c(c(-c3ccc(F)c(C(F)(F)F)c3)cn2-c2ncccn2)c1=O)N1CCC(F)C1 (centres unmarked) | 1 (yes) |
| CCn1cc(-c2ccc(F)c(Cl)c2)c2c(=O)n(CC(=O)N3CC(F)(F)C3)cnc21 | 0 (no) |
| O=C(Cn1ccc2c(c(-c3ccc(F)c(C(F)(F)F)c3)cn2CCF)c1=O)N1CCC(F)C1 (centres unmarked) | 1 (yes) |
| Cc1cc(-c2ccn3ccn(CC(=O)N4CC(F)(CF)C4)c(=O)c23)cnc1Cl | 0 (no) |
| CC1(F)CN(C(=O)Cn2ccc3scc(-c4cnc(F)c(Cl)c4)c3c2=O)C1 | 0 (no) |
| Cn1cc(-c2ccc(Cl)c(F)c2)c2c(=O)n(CC(=O)N3CC(F)(F)C3)cnc21 | 0 (no) |
| O=C(Cn1cnc2[nH]cc(-c3ccc(F)c(Cl)c3)c2c1=O)N1CC(F)(F)C1 | 1 (yes) |

----------
// reported Response Recovered (%) for each item listed
assay.system: HEK293 cells with stable expression of the GRIN1 gene and tetracycline-inducible expression of the GRIN2B gene (NMDA receptor, NR2B) (Homo sapiens, UniProt Q13224)
method.notes: Fluo-8 Ca2+ flux assay: reversal of Ro 25-6981-mediated suppression of the Ca2+ response to co-agonist (glutamate/glycine)
Assay type: cell-based
run.parameters: reversal of the Ro 25-6981 suppression of the Ca2+ response to co-agonist (glutamate/glycine)
property.name: Response Recovered (%)

| compound | property.name | recorded.number |
| --- | --- | --- |
| O=C(Cn1cnc2[nH]cc(-c3ccc(Cl)c(C(F)(F)F)c3)c2c1=O)N1C[C@@H](F)[C@@H](F)C1 [Example 181] | Response Recovered (%) | 69 |
| O=C(Cn1ccc2c(c(-c3ccc(Cl)c(Cl)c3)cn2C2CC2)c1=O)N1CC(F)(CF)C1 [Example 293] | Response Recovered (%) | 160 |
| CCC1(F)CN(C(=O)Cn2ccc3scc(-c4cnc(C)c(Cl)c4)c3c2=O)C1 [Example 91] | Response Recovered (%) | 74 |
| CCC1(F)CN(C(=O)Cn2ccc3scc(-c4ccc(Cl)c(Cl)c4)c3c2=O)C1 [Example 50] | Response Recovered (%) | 96 |
| O=C(Cn1ccn2ncc(-c3ccc(Cl)c(Cl)c3)c2c1=O)N1CCCC1 [Example 326] | Response Recovered (%) | 29 |
| O=C(Cn1ccc2scc(-c3ccc(F)c(C(F)(F)F)c3)c2c1=O)N1CC2(COC2)C1 [Example 69] | Response Recovered (%) | 16 |
| O=C(Cn1ccc2c(c(-c3ccc(F)c(C(F)(F)F)c3)cn2-c2ccncn2)c1=O)N1CCC(F)C1 (centres unmarked) [Example 244] | Response Recovered (%) | 110 |
| O=C(Cn1ccc2scc(-c3ccc(F)c(C(F)(F)F)c3)c2c1=O)N1CC2(CC2)C1 [Example 80] | Response Recovered (%) | 64 |
